test system: HeLa cells; assay: Cell proliferation assay, photographic image analysis of proliferation, apoptosis and death (PAD assay), HeLa; format: cell-based; design: key: “+” indicates that the compound exibits inhibitory activity; “−” indicates that low or no inhibitory activity was observed; settings: 6 concentrations tested

{"columns": ["smilesEntry", "systemName", "PAD Assay, HELA 6 pt"],
 "data": [
  ["O=S(=O)(Nc1cc(C(F)(F)F)ccc1Cl)c1ccc(Oc2ncc(C(F)(F)F)cc2Cl)cc1", "HeLa cells", "+"],
  ["O=S(=O)(Nc1ccc(Oc2ccc(F)cc2)c(Br)c1)c1ccc(F)cc1", "HeLa cells", "−"],
  ["O=S(=O)(Nc1cc(F)ccc1F)c1ccc(Oc2ncc(C(F)(F)F)cc2Cl)cc1", "HeLa cells", "−"],
  ["O=S(=O)(Nc1cc(Cl)cnc1Cl)c1ccc(Oc2ncc(C(F)(F)F)cc2Cl)cc1", "HeLa cells", "+"]
]}
